Each entry below lists one item and its recorded Efm384 MIC value.
test system: Enterococcus faecium EFM.384, Daptomycin resistant mutant (14-A); type: cell-based; conditions: MHBc with 50 mg/L calcium, 18-20 hours at 37° C.

compound	property.measured	recorded.measurement
CC(C)Cc1ccc(C(C)C(=O)N[C@@H](Cc2c[nH]c3ccccc23)C(=O)N[C@H](CC(N)=O)C(=O)N[C@@H](CC(=O)O)C(=O)N[C@@H]2C(=O)NCC(=O)N[C@@H](CCCN)C(=O)N[C@@H](CC(=O)O)C(=O)N[C@H](C)C(=O)N[C@@H](CC(=O)O)C(=O)NCC(=O)N[C@H](CO)C(=O)N[C@@H]([C@H](C)CC(=O)O)C(=O)N[C@@H](CC(=O)c3ccccc3N)C(=O)O[C@@H]2C)cc1 (single isomer, unassigned) [45 isomer I]	Efm384 MIC	>32 µg/mL
CCCCCCOc1ccc(/C=C/C(=O)N[C@@H](Cc2c[nH]c3ccccc23)C(=O)N[C@H](CC(N)=O)C(=O)N[C@@H](CC(=O)O)C(=O)N[C@@H]2C(=O)NCC(=O)N[C@@H](CCCN)C(=O)N[C@@H](CC(=O)O)C(=O)N[C@H](C)C(=O)N[C@@H](CC(=O)O)C(=O)NCC(=O)N[C@H](CO)C(=O)N[C@@H]([C@H](C)CC(=O)O)C(=O)N[C@@H](CC(=O)c3ccccc3N)C(=O)O[C@@H]2C)cc1	Efm384 MIC	8 µg/mL

Per the record, C[C@H](CC(=O)O)[C@@H]1NC(=O)[C@@H](CO)NC(=O)CNC(=O)[C@H](CC(=O)O)NC(=O)[C@@H](C)NC(=O)[C@H](CC(=O)O)NC(=O)[C@H](CCCN)NC(=O)CNC(=O)[C@@H](NC(=O)[C@H](CC(=O)O)NC(=O)[C@@H](CC(N)=O)NC(=O)[C@H](Cc2c[nH]c3ccccc23)NC(=O)Cc2ccc(-c3ccccc3)cc2)[C@@H](C)OC(=O)[C@H](CC(=O)c2ccccc2N)NC1=O has Efm384 MIC of >32 µg/mL

###

tested on: Enterococcus faecium EFM.384, Daptomycin resistant mutant (14-A); format: cell-based; conditions: MHBc with 50 mg/L calcium, 18-20 hours at 37° C.
property.measured: Efm384 MIC (µg/mL)
API: value field is a number in µg/mL; no unit string.

compound	assayed.system	Efm384 MIC, µg/mL
CCCCCCCCC1CC1C(=O)N[C@@H](Cc1c[nH]c2ccccc12)C(=O)N[C@H](CC(N)=O)C(=O)N[C@@H](CC(=O)O)C(=O)N[C@@H]1C(=O)NCC(=O)N[C@@H](CCCN)C(=O)N[C@@H](CC(=O)O)C(=O)N[C@H](C)C(=O)N[C@@H](CC(=O)O)C(=O)NCC(=O)N[C@H](CO)C(=O)N[C@@H]([C@H](C)CC(=O)O)C(=O)N[C@@H](CC(=O)c2ccccc2N)C(=O)O[C@@H]1C (single isomer, unassigned) [27 isomer I]	Enterococcus faecium EFM.384, Daptomycin resistant mutant (14-A)	32
CC(C)CCCCCCCCCC(=O)N[C@@H](Cc1c[nH]c2ccccc12)C(=O)N[C@H](CC(N)=O)C(=O)N[C@@H](CC(=O)O)C(=O)N[C@@H]1C(=O)NCC(=O)N[C@@H](CCCN)C(=O)N[C@@H](CC(=O)O)C(=O)N[C@H](C)C(=O)N[C@@H](CC(=O)O)C(=O)NCC(=O)N[C@H](CO)C(=O)N[C@@H]([C@H](C)CC(=O)O)C(=O)N[C@@H](CC(=O)c2ccccc2N)C(=O)O[C@@H]1C	Enterococcus faecium EFM.384, Daptomycin resistant mutant (14-A)	4

Now let's try a different one.
// Efm384 MIC (Enterococcus faecium EFM.384, Daptomycin resistant mutant (14-A)) for CCCOc1ccc(-c2ccc(C(=O)N[C@@H](Cc3c[nH]c4ccccc34)C(=O)N[C@H](CC(N)=O)C(=O)N[C@@H](CC(=O)O)C(=O)N[C@@H]3C(=O)NCC(=O)N[C@@H](CCCN)C(=O)N[C@@H](CC(=O)O)C(=O)N[C@H](C)C(=O)N[C@@H](CC(=O)O)C(=O)NCC(=O)N[C@H](CO)C(=O)N[C@@H]([C@H](C)CC(=O)O)C(=O)N[C@@H](CC(=O)c4ccccc4N)C(=O)O[C@@H]3C)cc2)cc1 = 32

###

system: Staphylococcus aureus SAU.42 (ATCC 29213); assay type: cell-based; settings: ATCC 29213
Each entry below lists one item and its recorded Sa42 MIC value.
API: value field is a number in µg/mL; no unit string.

compound	Sa42 MIC / µg/mL
CCCCCCC1CCC(c2ccc(C(=O)N[C@@H](Cc3c[nH]c4ccccc34)C(=O)N[C@H](CC(N)=O)C(=O)N[C@@H](CC(=O)O)C(=O)N[C@@H]3C(=O)NCC(=O)N[C@@H](CCCN)C(=O)N[C@@H](CC(=O)O)C(=O)N[C@H](C)C(=O)N[C@@H](CC(=O)O)C(=O)NCC(=O)N[C@H](CO)C(=O)N[C@@H]([C@H](C)CC(=O)O)C(=O)N[C@@H](CC(=O)c4ccccc4N)C(=O)O[C@@H]3C)cc2)CC1 (single isomer, unassigned) [54 isomer II]	1
CCCCCCCc1ccc(C(=O)N[C@@H](Cc2c[nH]c3ccccc23)C(=O)N[C@H](CC(N)=O)C(=O)N[C@@H](CC(=O)O)C(=O)N[C@@H]2C(=O)NCC(=O)N[C@@H](CCCN)C(=O)N[C@@H](CC(=O)O)C(=O)N[C@H](C)C(=O)N[C@@H](CC(=O)O)C(=O)NCC(=O)N[C@H](CO)C(=O)N[C@@H]([C@H](C)CC(=O)O)C(=O)N[C@@H](CC(=O)c3ccccc3N)C(=O)O[C@@H]2C)cc1	0.25

// Sa42 MIC (Staphylococcus aureus SAU.42 (ATCC 29213)) for CCCCCCCCCC(C)NC(=O)N[C@@H](Cc1c[nH]c2ccccc12)C(=O)N[C@H](CC(N)=O)C(=O)N[C@@H](CC(=O)O)C(=O)N[C@@H]1C(=O)NCC(=O)N[C@@H](CCCN)C(=O)N[C@@H](CC(=O)O)C(=O)N[C@H](C)C(=O)N[C@@H](CC(=O)O)C(=O)NCC(=O)N[C@H](CO)C(=O)N[C@@H]([C@H](C)CC(=O)O)C(=O)N[C@@H](CC(=O)c2ccccc2N)C(=O)O[C@@H]1C (single isomer, unassigned) [14 isomer I] = 0.25

###

tested on: Enterococcus faecium EFM.384, Daptomycin resistant mutant (14-A); format: cell-based; conditions: MHBc with 50 mg/L calcium, 18-20 hours at 37° C.
property.measured: Efm384 MIC

cpd.smiles	property.measured	recorded.measurement
C[C@H](CC(=O)O)[C@@H]1NC(=O)[C@@H](CO)NC(=O)CNC(=O)[C@H](CC(=O)O)NC(=O)[C@@H](C)NC(=O)[C@H](CC(=O)O)NC(=O)[C@H](CCCN)NC(=O)CNC(=O)[C@@H](NC(=O)[C@H](CC(=O)O)NC(=O)[C@@H](CC(N)=O)NC(=O)[C@H](Cc2c[nH]c3ccccc23)NC(=O)c2ccc(-c3ccc(-c4ccccc4)cc3)s2)[C@@H](C)OC(=O)[C@H](CC(=O)c2ccccc2N)NC1=O	Efm384 MIC	4 µg/mL

// Efm384 MIC (Enterococcus faecium EFM.384, Daptomycin resistant mutant (14-A)) for CCCCCCOc1ccc(C(=O)N[C@@H](Cc2c[nH]c3ccccc23)C(=O)N[C@H](CC(N)=O)C(=O)N[C@@H](CC(=O)O)C(=O)N[C@@H]2C(=O)NCC(=O)N[C@@H](CCCN)C(=O)N[C@@H](CC(=O)O)C(=O)N[C@H](C)C(=O)N[C@@H](CC(=O)O)C(=O)NCC(=O)N[C@H](CO)C(=O)N[C@@H]([C@H](C)CC(=O)O)C(=O)N[C@@H](CC(=O)c3ccccc3N)C(=O)O[C@@H]2C)cc1 = 32 µg/mL

// Efm384 MIC (Enterococcus faecium EFM.384, Daptomycin resistant mutant (14-A)) for CCCCCCCc1ccc(NC(=O)N[C@@H](Cc2c[nH]c3ccccc23)C(=O)N[C@H](CC(N)=O)C(=O)N[C@@H](CC(=O)O)C(=O)N[C@@H]2C(=O)NCC(=O)N[C@@H](CCCN)C(=O)N[C@@H](CC(=O)O)C(=O)N[C@H](C)C(=O)N[C@@H](CC(=O)O)C(=O)NCC(=O)N[C@H](CO)C(=O)N[C@@H]([C@H](C)CC(=O)O)C(=O)N[C@@H](CC(=O)c3ccccc3N)C(=O)O[C@@H]2C)cc1 = 4 µg/mL

// Efm384 MIC (Enterococcus faecium EFM.384, Daptomycin resistant mutant (14-A)) for CCCCCCc1ccc(/C(C)=C/C(=O)N[C@@H](Cc2c[nH]c3ccccc23)C(=O)N[C@H](CC(N)=O)C(=O)N[C@@H](CC(=O)O)C(=O)N[C@@H]2C(=O)NCC(=O)N[C@@H](CCCN)C(=O)N[C@@H](CC(=O)O)C(=O)N[C@H](C)C(=O)N[C@@H](CC(=O)O)C(=O)NCC(=O)N[C@H](CO)C(=O)N[C@@H]([C@H](C)CC(=O)O)C(=O)N[C@@H](CC(=O)c3ccccc3N)C(=O)O[C@@H]2C)cc1 = 4 µg/mL

// Efm384 MIC (Enterococcus faecium EFM.384, Daptomycin resistant mutant (14-A)) for C[C@H](CC(=O)O)[C@@H]1NC(=O)[C@@H](CO)NC(=O)CNC(=O)[C@H](CC(=O)O)NC(=O)[C@@H](C)NC(=O)[C@H](CC(=O)O)NC(=O)[C@H](CCCN)NC(=O)CNC(=O)[C@@H](NC(=O)[C@H](CC(=O)O)NC(=O)[C@@H](CC(N)=O)NC(=O)[C@H](Cc2c[nH]c3ccccc23)NC(=O)/C=C/c2ccc(-c3ccccc3)cc2)[C@@H](C)OC(=O)[C@H](CC(=O)c2ccccc2N)NC1=O = >32 µg/mL
